System: tet operator sequence
ASSAY INFO: β-galactosidase activity of a tetracycline-regulated promoter in transformed E. coli with revTetR, in the presence and absence of anhydrotetracycline (atc)
Type: cell-based, Escherichia coli
RUN CONDITIONS: RevTetR isolate cultured in the presence of anhydrotetracycline (ATC)
Output criterion met for β-Galactosidase Activity, Cultured With ATC not less than 4; output criterion not met otherwise.

MOLECULE: TetRrev29/24: revTetR(BD) E15V L17F N18Y I22M E23K (protein, Modified tetracycline repressor, revTetR(BD) E15V L17F N18Y I22M E23K) MSRLDKSKVINSALVLFYEVGMKGLTTRKLAQKLGVEQPTLYWHVKNKRALLDALAVEILARHHDYSLPAAGESWQSFLRNNAMSFRRALLRYRDGAKVHLGTRPDEKQYDTVETQLRFMTENGFSLRDGLYAISAVSHFTLGAVLEQQEHTAALTDRPAAPDENLPPLLREALQIMDSDDGEQAFLHGLESLIRGFEVQLTALLQIV
CATEGORY: criterion met
//
MOLECULE: TetRrev6-51: revTetR(BD) A97T V99G (protein, Modified tetracycline repressor, revTetR(BD) A97T V99G) MSRLDKSKVINSALELLNEVGIEGLTTRKLAQKLGVEQPTLYWHVKNKRALLDALAVEILARHHDYSLPAAGESWQSFLRNNAMSFRRALLRYRDGTKGHLGTRPDEKQYDTVETQLRFMTENGFSLRDGLYAISAVSHFTLGAVLEQQEHTAALTDRPAAPDENLPPLLREALQIMDSDDGEQAFLHGLESLIRGFEVQLTALLQIV
CATEGORY: criterion met
//
MOLECULE: TetRrev6-25: revTetR(BD) Y93S D95E G102A (protein, Modified tetracycline repressor, revTetR(BD) Y93S D95E G102A) MSRLDKSKVINSALELLNEVGIEGLTTRKLAQKLGVEQPTLYWHVKNKRALLDALAVEILARHHDYSLPAAGESWQSFLRNNAMSFRRALLRSREGAKVHLATRPDEKQYDTVETQLRFMTENGFSLRDGLYAISAVSHFTLGAVLEQQEHTAALTDRPAAPDENLPPLLREALQIMDSDDGEQAFLHGLESLIRGFEVQLTALLQIV
CATEGORY: criterion met
//
MOLECULE: TetRrevAF1/11: revTetR(BD) L14I V20V I22L R94H A97A V99E (protein, Modified tetracycline repressor, revTetR(BD) L14I V20V I22L R94H A97A V99E) MSRLDKSKVINSAIELLNEVGLEGLTTRKLAQKLGVEQPTLYWHVKNKRALLDALAVEILARHHDYSLPAAGESWQSFLRNNAMSFRRALLRYHDGAKEHLGTRPDEKQYDTVETQLRFMTENGFSLRDGLYAISAVSHFTLGAVLEQQEHTAALTDRPAAPDENLPPLLREALQIMDSDDGEQAFLHGLESLIRGFEVQLTALLQIV
CATEGORY: criterion not met
//
MOLECULE: TetRrevAF5/13: revTetR(BD) L14L V20G V99E (protein, Modified tetracycline repressor, revTetR(BD) L14L V20G V99E) MSRLDKSKVINSALELLNEGGIEGLTTRKLAQKLGVEQPTLYWHVKNKRALLDALAVEILARHHDYSLPAAGESWQSFLRNNAMSFRRALLRYRDGAKEHLGTRPDEKQYDTVETQLRFMTENGFSLRDGLYAISAVSHFTLGAVLEQQEHTAALTDRPAAPDENLPPLLREALQIMDSDDGEQAFLHGLESLIRGFEVQLTALLQIV
CATEGORY: criterion met

Where do the numbers come from? From patent US20030186281A1.
